Where do these numbers come from? They come from patent US7884199B2.

What Kcat was measured for each of the following?
- protocol: Substrate kinetic parameters of NS3 serine protease domains with KK-NS4A peptide and FRET substrate
- Assay type: biochemical, Hepatitis C virus
- cond: Table 1; FRET substrate, KK-NS4A core peptide
Numbers only, in s⁻¹.

molecule	result_unit	Kcat
A156S (1b) (protein) APITAYSQQTRGLLGCIITSLTGRDRNQVEGEVQVVSTATQSFLATCVNGVCWTVYHGAGSKTLAGPKGPITQMYTNVDQDLVGWQAPPGARSLTPCTCGSSDLYLVTRHADVIPVRRRGDSRGSLLSPRPVSYLKGSSGGPLLCPSGHAVGIFRSAVCTRGVAKAVDFVPVESMETTMRSHHHHHH	s⁻¹	0.6

Quick batch: Kcat for everything below.
1. Wt (1b): wild-type HCV NS3 serine protease domain, genotype 1b (Con1 strain) (protein) APITAYSQQTRGLLGCIITSLTGRDRNQVEGEVQVVSTATQSFLATCVNGVCWTVYHGAGSKTLAGPKGPITQMYTNVDQDLVGWQAPPGARSLTPCTCGSSDLYLVTRHADVIPVRRRGDSRGSLLSPRPVSYLKGSSGGPLLCPSGHAVGIFRAAVCTRGVAKAVDFVPVESMETTMRSHHHHHH
2. D168A (1b) (protein) APITAYSQQTRGLLGCIITSLTGRDRNQVEGEVQVVSTATQSFLATCVNGVCWTVYHGAGSKTLAGPKGPITQMYTNVDQDLVGWQAPPGARSLTPCTCGSSDLYLVTRHADVIPVRRRGDSRGSLLSPRPVSYLKGSSGGPLLCPSGHAVGIFRAAVCTRGVAKAVAFVPVESMETTMRSHHHHHH
3. D168V (1b) (protein) APITAYSQQTRGLLGCIITSLTGRDRNQVEGEVQVVSTATQSFLATCVNGVCWTVYHGAGSKTLAGPKGPITQMYTNVDQDLVGWQAPPGARSLTPCTCGSSDLYLVTRHADVIPVRRRGDSRGSLLSPRPVSYLKGSSGGPLLCPSGHAVGIFRAAVCTRGVAKAVVFVPVESMETTMRSHHHHHH

OUTPUT:
1. 1.0
2. 0.3
3. 0.6
